B1: TPR t1 (parent)
chain: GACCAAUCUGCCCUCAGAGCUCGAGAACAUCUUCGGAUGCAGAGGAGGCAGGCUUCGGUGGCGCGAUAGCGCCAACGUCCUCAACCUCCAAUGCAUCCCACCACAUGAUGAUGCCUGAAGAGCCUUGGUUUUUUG

- Variants of: B1
- protocol-description: polymerase ribozyme fitness, log enrichment relative to wild type (log ratio); higher = more active; in vitro selection for triplet polymerase activity
The threshold is inclusive: polymerase ribozyme fitness (log ratio) of exactly -3 counts as criterion met; values below receive criterion not met.

Solved cases (6 shown):
>>> label_value("G44U C70U U96A C104A")
"criterion not met"
>>> label_value("A27G C62G A83G C86U")
"criterion not met"
>>> label_value("U112C A119U")
"criterion met"
>>> label_value("A41U")
"criterion met"
>>> label_value("C15A C20A A118U")
"criterion not met"
>>> label_value("U7A A41U C72A C85U")
"criterion met"

(Q) Answer whether polymerase ribozyme fitness (log ratio) of C49G G128U is greater than or equal to -3.
(A) criterion met

(Q) API: above_or_equal(metric=polymerase ribozyme fitness (log ratio), cutoff=-3) for item G47A G61A C85A C98A
(A) criterion not met

(Q) Kindly determine if polymerase ribozyme fitness (log ratio) recorded for C28U G44C C79U C82U U126C G127U U129G is above or exactly -3.
(A) criterion not met

(Q) Decide: polymerase ribozyme fitness (log ratio) of G23A C56U >= -3?
(A) criterion not met

(Q) // inclusive: polymerase ribozyme fitness (log ratio) at least -3? input: C28U G127U
(A) criterion met

(Q) Dear colleague, could you confirm whether G10U C62A has polymerase ribozyme fitness (log ratio) at or above -3?
(A) criterion met
